target: CCK-A (Cavia porcellus); construct: A longitudinal strip of guinea-pig gall-bladder was put in a bath for isolated organs; from tissue; host or cells: guinea-pig gall bladder longitudinal strip; experiment: Anti-CCK-A activity on guinea-pig gall bladder stimulated in vitro by CCK-8; conditions: gall bladder IC50 over gastric mucous cells IC50
Sequence (Q63931 whole entry): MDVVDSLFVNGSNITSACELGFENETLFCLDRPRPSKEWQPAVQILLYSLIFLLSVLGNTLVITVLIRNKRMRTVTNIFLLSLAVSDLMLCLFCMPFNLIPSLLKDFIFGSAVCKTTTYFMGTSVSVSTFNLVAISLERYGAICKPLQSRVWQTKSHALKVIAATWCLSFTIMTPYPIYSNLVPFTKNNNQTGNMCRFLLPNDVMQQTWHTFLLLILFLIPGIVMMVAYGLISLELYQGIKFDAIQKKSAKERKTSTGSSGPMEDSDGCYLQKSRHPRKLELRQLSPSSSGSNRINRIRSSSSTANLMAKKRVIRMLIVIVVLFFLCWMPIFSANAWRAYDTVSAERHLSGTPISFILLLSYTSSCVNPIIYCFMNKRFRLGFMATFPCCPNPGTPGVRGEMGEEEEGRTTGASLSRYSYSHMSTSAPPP
Consider the following compounds; for each one, report its Ratio I/II (CCK-A IC50 / CCK-B IC50).
Give bare numbers.

compound_string=O=C(CC[C@@H](NC(=O)c1cc(Cl)cc(Cl)c1)C(=O)N1CCC2(CCCC2)CC1)N[C@H](Cc1ccccn1)C(=O)O recorded_result=14.8

Dear reader, for each entry below, please note its Ratio I/II (CCK-A IC50 / CCK-B IC50).
1. O=C(CC[C@@H](NC(=O)c1cc(Cl)cc(Cl)c1)C(=O)N1CCC2(CCCC2)CC1)N[C@H](Cc1ccc2ccccc2c1)C(=O)O
2. O=C(CC[C@@H](NC(=O)c1cc(Cl)cc(Cl)c1)C(=O)N1CCC2(CCCC2)CC1)N[C@@H](Cc1c[nH]c2ccccc12)C(=O)O
3. O=C(CC[C@@H](NC(=O)c1cc(Cl)cc(Cl)c1)C(=O)N1CCC2(CCCC2)CC1)N[C@H](Cc1cccc2ccccc12)C(=O)O
4. O=C(CC[C@@H](NC(=O)c1cc(Cl)cc(Cl)c1)C(=O)N1CCC2(CCCC2)CC1)N[C@@H](Cc1ccccc1)C(=O)O
5. O=C(O)C[C@@H](Cc1ccccc1)NC(=O)CC[C@@H](NC(=O)c1cc(Cl)cc(Cl)c1)C(=O)N1CCC2(CCCC2)CC1
6. O=C(CC[C@@H](NC(=O)c1cc(Cl)cc(Cl)c1)C(=O)N1CCC2(CCCCC2)CC1)N[C@H](Cc1c[nH]c2ccccc12)C(=O)O
7. O=C(CC[C@@H](NC(=O)c1cc(Cl)cc(Cl)c1)C(=O)N1CCC2(CCCC2)CC1)N[C@H](Cc1ccccc1)C(=O)O

1527
1397
1214
179
160
1837
108
